Assay: total protein half-life in vivo (active degradation + dilution); higher = more stable protein
Conditions: wild type E. coli NCM3722; growth: C-lim chemostat; doubling time 12 h
Assay metric: total protein half-life in vivo
Write the numeric value and append its unit.

Example sequences with recorded total protein half-life in vivo:
| Ordered residues | Result |
| --- | --- |
| MTSLYLASGSPRRQELLAQLGVTFERIVTGIEEQRQPQESAQQYVVRLAREKARAGVAQTAKDLPVLGADTIVILNGEVLEKPRDAEHAAQMLRKLSGQTHQVMTAVALADSQHILDCLVVTDVTFRTLTDEDIAGYVASDEPLDKAGAYGIQGLGGCFVRKINGSYHAVVGLPLVETYELLSNFNALREKRDKHDG | 8.84 h |
| MMQHQVNVSARFNPETLERVLRVVRHRGFHVCSMNMAAASDAQNINIELTVASPRSVDLLFSQLNKLVDVAHVAICQSTTTSQQIRA [P0ADG1] | 0.533 h |

Input: // Input: MQDRNFDDIAEKFSRNIYGTTKGQLRQAILWQDLDRVLAEMGPQKLRVLDAGGGEGQTAIKMAERGHQVILCDLSAQMIDRAKQAAEAKGVSDNMQFIHCAAQDVASHLETPVDLILFHAVLEWVADPRSVLQTLWSVLRPGGVLSLMFYNAHGLLMHNMVAGNFDYVQAGMPKKKKRTLSPDYPRDPAQVYLWLEEAGWQIMGKTGVRVFHDYLREKHQQRDCYEALLELETRYCRQEPYITLGRYIHVTARKPQSKDKV . Output its total protein half-life in vivo only.
Output: 10.2 h

Input: // Input: MGFLSGKRILVTGVASKLSIAYGIAQAMHREGAELAFTYQNDKLKGRVEEFAAQLGSDIVLQCDVAEDASIDTMFAELGKVWPKFDGFVHSIGFAPGDQLDGDYVNAVTREGFKIAHDISSYSFVAMAKACRSMLNPGSALLTLSYLGAERAIPNYNVMGLAKASLEANVRYMANAMGPEGVRVNAISAGPIRTLAASGIKDFRKMLAHCEAVTPIRRTVTIEDVGNSAAFLCSDLSAGISGEVVHVDGGFSIAAMNELELK [P0AEK4] . Output its total protein half-life in vivo only.
Output: 11 h

Input: // Input: MIRSMTAYARREIKGEWGSATWEMRSVNQRYLETYFRLPEQFRSLEPVVRERIRSRLTRGKVECTLRYEPDVSAQGELILNEKLAKQLVTAANWVKMQSDEGEINPVDILRWPGVMAAQEQDLDAIAAEILAALDGTLDDFIVARETEGQALKALIEQRLEGVTAEVVKVRSHMPEILQWQRERLVAKLEDAQVQLENNRLEQELVLLAQRIDVAEELDRLEAHVKETYNILKKKEAVGRRLDFMMQEFNRESNTLASKSINAEVTNSAIELKVLIEQMREQIQNIE . Output its total protein half-life in vivo only.
Output: 9.42 h

Input: // Input: MKIFLENLYHSDCYFLPIRDNQQVLVGVELITHFSSEDGTVRIPTSRVIAQLTEEQHWQLFSEQLELLKSCQHFFIQHKLFAWLNLTPQVATLLLERDNYAGELLKYPFIELLINENYPHLNEGKDNRGLLSLSQVYPLVLGNLGAGNSTMKAVFDGLFTRVMLDKSFIQQQITHRSFEPFIRAIQAQISPCCNCIIAGGIDTAEILAQITPFDFHALQGCLWPAVPINQITTLVQR . Output its total protein half-life in vivo only.
Output: 9.89 h

Input: // Input: MSLINTKIKPFKNQAFKNGEFIEITEKDTEGRWSVFFFYPADFTFVCPTELGDVADHYEELQKLGVDVYAVSTDTHFTHKAWHSSSETIAKIKYAMIGDPTGALTRNFDNMREDEGLADRATFVVDPQGIIQAIEVTAEGIGRDASDLLRKIKAAQYVASHPGEVCPAKWKEGEATLAPSLDLVGKI [P0AE08] . Output its total protein half-life in vivo only.
Output: 7.67 h

Input: // Input: MKRTKSIRHASFRKNWSARHLTPVALAVATVFMLAGCEKSDETVSLYQNADDCSAANPGKSAECTTAYNNALKEAERTAPKYATREDCVAEFGEGQCQQAPAQAGMAPENQAQAQQSSGSFWMPLMAGYMMGRLMGGGAGFAQQPLFSSKNPASPAYGKYTDATGKNYGAAQPGRTMTVPKTAMAPKPATTTTVTRGGFGESVAKQSTMQRSATGTSSRSMGG [P0ADT2] . Output its total protein half-life in vivo only.
Output: 5.86 h

* * *

Experiment: total protein half-life in vivo (active degradation + dilution); higher = more stable protein
Conditions: wild type E. coli NCM3722; growth: N-lim chemostat; doubling time 12 h
Assay metric: total protein half-life in vivo (h)
Respond numerically; units are h and should not be typed.

| Ordered residues | total protein half-life in vivo [h] |
| --- | --- |
| MKNKADNKKRNFLTHSEIESLLKAANTGPHAARNYCLTLLCFIHGFRASEICRLRISDIDLKAKCIYIHRLKKGFSTTHPLLNKEVQALKNWLSIRTSYPHAESEWVFLSRKGNPLSRQQFYHIISTSGGNAGLSLEIHPHMLRHSCGFALANMGIDTRLIQDYLGHRNIRHTVWYTASNAGRFYGIWDRARGRQRHAVL [P0ADH5] | 0.988 |

Input: // Input: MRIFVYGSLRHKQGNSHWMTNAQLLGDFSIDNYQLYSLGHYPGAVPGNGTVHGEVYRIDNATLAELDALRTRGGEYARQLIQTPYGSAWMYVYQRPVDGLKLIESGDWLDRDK [P0AE48] . Output its total protein half-life in vivo only.
Output: 7.76

* * *

Test: total protein half-life in vivo (active degradation + dilution); higher = more stable protein
Conditions: E. coli NCM3722 delta-clpP; growth: N-lim chemostat; doubling time 6 h
Could you label it rule met if measured total protein half-life in vivo is 4 h or higher, and rule not met otherwise?

Use these answered entries as a reference point.
| Ordered residues | Label value |
| --- | --- |
| MKLFYKPGACSLASHITLRESGKDFTLVSVDLMKKRLENGDDYFAVNPKGQVPALLLDDGTLLTEGVAIMQYLADSVPDRQLLAPVNSISRYKTIEWLNYIATELHKGFTPLFRPDTPEEYKPTVRAQLEKKLQYVNEALKDEHWICGQRFTIADAYLFTVLRWAYAVKLNLEGLEHIAAFMQRMAERPEVQDALSAEGLK [P0A9D2] | rule met |
| MNKVVLLCRPGFEKECAAEITDKAGQREIFGFARVKENAGYVIYECYQPDDGDKLIRELPFSSLIFARQWFVVGELLQHLPPEDRITPIVGMLQGVVEKGGELRVEVADTNESKELLKFCRKFTVPLRAALRDAGVLANYETPKRPVVHVFFIAPGCCYTGYSYSNNNSPFYMGIPRLKFPADAPSRSTLKLEEAFHVFIPADEWDERLANGMWAVDLGACPGGWTYQLVKRNMWVYSVDNGPMAQSLMDTGQVTWLREDGFKFRPTRSNISWMVCDMVEKPAKVAALMAQWLVNGWCRETIFNLKLPMKKRYEEVSHNLAYIQAQLDEHGINAQIQARQLYHDREEVTVHVRRIWAAVGGRRDER [P0ADR6] | rule met |
| MSEKLQKVLARAGHGSRREIESIIEAGRVSVDGKIAKLGDRVEVTPGLKIRIDGHLISVRESAEQICRVLAYYKPEGELCTRNDPEGRPTVFDRLPKLRGARWIAVGRLDVNTCGLLLFTTDGELANRLMHPSREVEREYAVRVFGQVDDAKLRDLSRGVQLEDGPAAFKTIKFSGGEGINQWYNVTLTEGRNREVRRLWEAVGVQVSRLIRVRYGDIPLPKGLPRGGWTELDLAQTNYLRELVELPPETSSKVAVEKDRRRMKANQIRRAVKRHSQVSGGRRSGGRNNNG | rule met |
| MTQFASPVLHSLLDTDAYKLHMQQAVFHHYYDVHVAAEFRCRGDDLLGIYADAIREQVQAMQHLRLQDDEYQWLSALPFFKADYLNWLREFRFNPEQVTVSNDNGKLDIRLSGPWREVILWEVPLLAVISEMVHRYRSPQADVAQALDTLESKLVDFSALTAGLDMSRFHLMDFGTRRRFSREVQETIVKRLQQESWFVGTSNYDLARRLSLTPMGTQAHEWFQAHQQISPDLANSQRAALAAWLEEYPDQLGIALTDCITMDAFLRDFGVEFASRYQGLRHDSGDPVEWGEKAIAHYEKLGIDPQSKTLVFSDNLDLRKAVELYRHFSSRVQLSFGIGTRLTCDIPQVKPLNIVIKLVECNGKPVAKLSDSPGKTICHDKAFVRALRKAFDLPHIKKAS | rule not met |
| MTTLTARPEAITFDPQQSALIVVDMQNAYATPGGYLDLAGFDVSTTRPVIANIQTAVTAARAAGMLIIWFQNGWDEQYVEAGGPGSPNFHKSNALKTMRKQPQLQGKLLAKGSWDYQLVDELVPQPGDIVLPKPRYSGFFNTPLDSILRSRGIRHLVFTGIATNVCVESTLRDGFFLEYFGVVLEDATHQAGPKFAQKAALFNIETFFGWVSDVETFCDALSPTSFAHIA | rule not met |
| MTIKNVICDIDGVLMHDNVAVPGAAEFLHGIMDKGLPLVLLTNYPSQTGQDLANRFATAGVDVPDSVFYTSAMATADFLRRQEGKKAYVVGEGALIHELYKAGFTITDVNPDFVIVGETRSYNWDMMHKAAYFVANGARFIATNPDTHGRGFYPACGALCAGIEKISGRKPFYVGKPSPWIIRAALNKMQAHSEETVIVGDNLRTDILAGFQAGLETILVLSGVSSLDDIDSMPFRPSWIYPSVAEIDVI [P0AF24] | rule met |

Input: Does the sequence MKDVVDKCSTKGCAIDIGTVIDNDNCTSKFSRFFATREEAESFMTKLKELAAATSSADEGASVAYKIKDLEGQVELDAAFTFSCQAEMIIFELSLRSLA have recorded total protein half-life in vivo that is 4 h or more?
Output: rule met

Input: Does the sequence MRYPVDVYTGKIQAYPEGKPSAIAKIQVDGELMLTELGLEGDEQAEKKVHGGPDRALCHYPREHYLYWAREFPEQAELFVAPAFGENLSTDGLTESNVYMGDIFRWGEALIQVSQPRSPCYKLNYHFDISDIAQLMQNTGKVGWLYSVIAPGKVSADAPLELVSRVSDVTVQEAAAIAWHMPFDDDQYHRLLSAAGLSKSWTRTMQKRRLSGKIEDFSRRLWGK have recorded total protein half-life in vivo that is 4 h or more?
Output: rule met

Input: Does the sequence MSLPMLQVALDNQTMDSAYETTRLIAEEVDIIEVGTILCVGEGVRAVRDLKALYPHKIVLADAKIADAGKILSRMCFEANADWVTVICCADINTAKGALDVAKEFNGDVQIELTGYWTWEQAQQWRDAGIGQVVYHRSRDAQAAGVAWGEADITAIKRLSDMGFKVTVTGGLALEDLPLFKGIPIHVFIAGRSIRDAASPVEAARQFKRSIAELWG have recorded total protein half-life in vivo that is 4 h or more?
Output: rule not met

Input: Does the sequence MSNLTYLQGYPEQLLSQVRTLINEQRLGDVLAKRYPGTHDYATDKALWQYTQDLKNQFLRNAPPINKVMYDNKIHVLKNALGLHTAVSRVQGGKLKAKVEIRVATVFRNAPEPFLRMIVVHELAHLKEKEHNKAFYQLCCHMEPQYHQLEFDTRLWLTQLSLGQNKI have recorded total protein half-life in vivo that is 4 h or more?
Output: rule not met
